# credit: ChEMBL document CHEMBL5584289

# Assay Summary: Antioxidant activity assessed as DPPH radical scavenging activity
# Format: functional
# Conditions Used: read-out: IC50
Value Kind: IC50 (µM)
Answer with a number only, understood to be in µM.

Query :: Recorded IC50 for CC(=O)CC(=O)c1ccc(O)c(O)c1 , please?
Result :: 11.3

* * *

# Assay Summary: Antioxidant activity assessed as hydroxyl radical scavenging activity at 10 uM
# Format: functional
Value Kind: pIC50
pIC50 here is simply -log10 of the concentration when that concentration is written in mol/L.

Query :: Recorded pIC50 for CC(=O)CC(=O)c1ccc(O)c(O)c1 , please?
Result :: 5.03

* * *

# Tested On: Mushroom tyrosinase (Agaricus bisporus, UniProt O42713+Q00024+C7FF04+C7FF05)
# Assay Summary: Inhibition of mushroom tyrosinase monophenolase activity
# Type: protein assay
Value Kind: IC50 (nM)
Value expressed in nM; do not type the unit.

Known IC50 results, listed for orientation:
{"columns": ["Test Smiles", "IC50 [nM]"],
 "data": [
  ["C[C@@]12C[C@@]3(O)O[C@@H](O1)[C@]1(COC(=O)c4ccccc4)[C@H]3C[C@@]12O[C@@H]1O[C@H](COC(=O)c2cc(O)c(O)c(O)c2)[C@@H](O)[C@H](O)[C@H]1O", 170],
  ["O=C(O)c1cc(O)c(O)c(O)c1", 1530],
  ["O=C(OC[C@H]1O[C@@H](OC(=O)c2cc(O)c(O)c(O)c2)[C@H](OC(=O)c2cc(O)c(O)c(O)c2)[C@@H](OC(=O)c2cc(O)c(O)c(O)c2)[C@@H]1OC(=O)c1cc(O)c(O)c(O)c1)c1cc(O)c(O)c(O)c1", 20]
]}

Let us examine a further case.
Query :: Using the record for Oc1cc(O)c2c(c1)O[C@H](c1ccc(O)c(O)c1)[C@@H](O)C2 , report its IC50.
Result :: 60
